Test Target: human MDM2 protein (amino acids 1-125) (Homo sapiens, UniProt Q00987)
Sequence (Q00987 1-125 limits assumed): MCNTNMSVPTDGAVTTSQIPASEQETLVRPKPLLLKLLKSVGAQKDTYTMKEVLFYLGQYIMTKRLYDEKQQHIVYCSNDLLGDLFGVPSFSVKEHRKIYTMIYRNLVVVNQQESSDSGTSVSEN
Experiment Notes: SPR, biotinylated MDM2 on streptavidin, peptide as analyte
Positions of bridges follow the written chain, without caps; N, C: chain ends. Non-standard residues stand in square brackets, D forms with d. No end group written: not given here. dPhe(4-CF3) = N[C@H](Cc1ccc(C(F)(F)F)cc1)C(=O)O; dTrp(6-F) = N[C@H](Cc1c[nH]c2cc(F)ccc12)C(=O)O; R8 = C=CCCCCCC[C@@](C)(N)C(=O)O; R5 = C=CCCC[C@@](C)(N)C(=O)O; S5 = C=CCCC[C@](C)(N)C(=O)O
Property: Kd

[R5][dA][dTrp(6-F)][dY][R5][dN][dPhe(4-CF3)][dE][S5][dL][dL][R8]-NH2 (staple 1-5, 9-12) [^DPMI-δ(1-5,9-12)] :: < 1 nM

Query: Tell me the measured Kd of XAXYXNXEKLLX (all alpha-amino acids have a D configuration; Xaa1 is R5 ((R)-2-(4'-pentenyl)-alanine), Xaa5 is B5 (2,2-(4'-pentenyl)-glycine), Xaa12 is R8 ((R)-2-(7'-octenyl)-alanine), joined by a hydrocarbon stitch 1-5 and 5-12 with residue 5 in common; Xaa3 is 6-F-Trp; Xaa7 is p-CF3-Phe; Xaa12 optionally has a C-terminal amide; Xaa1 optionally has a N-terminal acyl) [^DPMI-δ(1,5,12)] , please.
Reply: < 1 nM

Query: Similarly, XAXYXNXEKLLR (all alpha-amino acids have a D configuration; Xaa1 is R5 and Xaa5 is R5 ((R)-2-(4'-pentenyl)-alanine), joined by a hydrocarbon staple; Xaa3 is 6-F-Trp; Xaa7 is p-CF3-Phe; Xaa12 optionally has a C-terminal amide; Xaa1 optionally has a N-terminal acyl) [^DPMI-δ(1-5)] ?
Reply: < 1 nM

Query: Similarly, [dT][R5][dTrp(6-F)][dY][dA][R5][dPhe(4-CF3)][dE][dK][dL][dL][dR]-NH2 (staple 2-6) [^DPMI-δ(2-6)] ?
Reply: > 500 nM

Where do the numbers come from? From patent US20220267376A1.
